# Tested on: OVCAR-5 ovarian
# TEST: NCI tumour cell line growth inhibition, 48 h
Give TGI for every item shown.
Numbers only, in µM.

Please review the following examples before continuing.
# COMPOUND, MEASUREMENT_KIND, REPORTED_MEASUREMENT
rows = [
    ("O=C(O)c1cc2c(cc1S(=O)(=O)O)C1C(C3C2C2(Cl)C(Cl)=C(Cl)C3(Cl)C2(Cl)Cl)C2(Cl)C(Cl)=C(Cl)C1(Cl)C2(Cl)Cl (stereo not given)", "TGI", 70),
    ("Cc1cc2nc3c(C(O)CO)nn(-c4ccccc4)c3nc2cc1C (stereo not given)", "TGI", 44.9),
    ("C/C(=N/NC(=S)N(Cc1ccccn1)Cc1ccccn1)c1cnccn1", "TGI", 32.6),
]

Which TGI is reported for this compound? Cc1cc2c(C(N)=O)cccc2n1-c1nc2c(c(NCc3ccccc3)n1)CCCN2
0.585
